Measured NT activity, minimum virus-neutralizing concentration, PR8 virus values are reported for all entries that follow.
SYSTEM_NAME: recombinant trimeric HA of A/Puerto Rico/8/1934 (H1N1) (influenza A virus A/Puerto Rico/8/1934 …, UniProt P03452)
Sequence (P03452 18-528): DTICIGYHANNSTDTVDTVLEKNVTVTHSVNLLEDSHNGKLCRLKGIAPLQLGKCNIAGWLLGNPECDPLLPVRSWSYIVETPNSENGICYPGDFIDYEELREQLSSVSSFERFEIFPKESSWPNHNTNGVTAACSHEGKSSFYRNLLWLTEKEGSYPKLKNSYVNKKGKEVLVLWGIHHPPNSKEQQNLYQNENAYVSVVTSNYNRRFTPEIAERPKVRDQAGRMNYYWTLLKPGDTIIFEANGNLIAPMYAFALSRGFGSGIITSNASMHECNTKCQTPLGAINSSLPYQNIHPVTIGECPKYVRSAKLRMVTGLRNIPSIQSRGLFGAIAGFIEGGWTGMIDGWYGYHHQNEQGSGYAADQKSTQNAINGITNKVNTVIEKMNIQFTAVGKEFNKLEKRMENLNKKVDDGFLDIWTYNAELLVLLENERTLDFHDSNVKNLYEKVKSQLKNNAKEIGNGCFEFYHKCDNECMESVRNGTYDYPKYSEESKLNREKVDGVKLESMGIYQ
EXPERIMENTAL_PROTOCOL: cell-based or functional assay
MEASUREMENT_KIND: NT activity, minimum virus-neutralizing concentration, PR8 virus

>>> value_reported("F11 IgA1 monomer (antibody, V domains shown) VH: QVQLVQSGAEVKRPGSSVRVSCRTSGGSFTSFAISWVRQAPGQGLEWMGRITRILGVPNYAQKFQGRVTITADMPTTTAYLDLTNLRSEDTAVYYCARDSGTSHGDFDYWGQGTLVTVSS VL: EIVLTQSPVTLSLSPGERATLSCRASQNVINSLVWYQQKPGQAPRLLIYGASNRATGIPARFRGSGSGTDFTLTIDSLEPEDIAVYYCQQRGTWLWSFGQGTKVEIK")
"50 µg/mL"
>>> value_reported("F11 IgA1 polymer (antibody, V domains shown) VH: QVQLVQSGAEVKRPGSSVRVSCRTSGGSFTSFAISWVRQAPGQGLEWMGRITRILGVPNYAQKFQGRVTITADMPTTTAYLDLTNLRSEDTAVYYCARDSGTSHGDFDYWGQGTLVTVSS VL: EIVLTQSPVTLSLSPGERATLSCRASQNVINSLVWYQQKPGQAPRLLIYGASNRATGIPARFRGSGSGTDFTLTIDSLEPEDIAVYYCQQRGTWLWSFGQGTKVEIK")
"25 µg/mL"
>>> value_reported("F11 IgA2m2 polymer (antibody, V domains shown) VH: QVQLVQSGAEVKRPGSSVRVSCRTSGGSFTSFAISWVRQAPGQGLEWMGRITRILGVPNYAQKFQGRVTITADMPTTTAYLDLTNLRSEDTAVYYCARDSGTSHGDFDYWGQGTLVTVSS VL: EIVLTQSPVTLSLSPGERATLSCRASQNVINSLVWYQQKPGQAPRLLIYGASNRATGIPARFRGSGSGTDFTLTIDSLEPEDIAVYYCQQRGTWLWSFGQGTKVEIK")
"50 µg/mL"
>>> value_reported("F11 IgA2m2 monomer (antibody, V domains shown) VH: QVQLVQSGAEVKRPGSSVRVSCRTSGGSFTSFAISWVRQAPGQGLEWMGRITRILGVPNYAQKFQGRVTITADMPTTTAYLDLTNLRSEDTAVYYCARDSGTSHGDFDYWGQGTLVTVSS VL: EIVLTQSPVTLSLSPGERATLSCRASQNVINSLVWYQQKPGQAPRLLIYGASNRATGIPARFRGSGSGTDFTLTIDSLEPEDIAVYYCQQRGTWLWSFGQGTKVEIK")
"89.1 µg/mL"
